experiment: physchem; settings: pH 7.4, aqueous buffer, kinetic from dmso stock, Solubility Range
MEASURE_NAME: solubility at 24 h

Examples from the recorded data:
1) CCNC(=O)Nc1nc2cc(-c3cnc(N4CCC(C)(C(=O)O)CC4)nc3)cc(-c3cn(-c4ccccc4)nn3)c2s1 [Compound 41] : > 800 µg/mL
2) CCNC(=O)Nc1nc2cc(-c3cnc(N4CCC(C#N)(C(=O)O)CC4)nc3)cc(-c3ccccn3)c2s1 [Compound 130] : 12.5 to 400 µg/mL
3) CCNC(=O)Nc1nc2cc(-c3cnc(N4CCC(C)(C(=O)O)CC4)nc3)cc(-c3cnc(N4CCOCC4)s3)c2s1 [Compound 76] : > 800 µg/mL

Requested read-out: solubility at 24 h. Entry: CCNC(=O)Nc1nc2cc(-c3cnc(N4CCC(C)(C(=O)O)CC4)nc3)cc(-c3ncco3)c2s1 [Compound 19] > 800 µg/mL

Requested read-out: solubility at 24 h. Entry: CCNC(=O)Nc1nc2cc(-c3cnc(N4CCC(C)(C(=O)O)C4)nc3)cc(-c3ccccn3)c2s1 (centres unmarked) [Compound 201] > 800 µg/mL

Requested read-out: solubility at 24 h. Entry: CCNC(=O)Nc1nc2cc(-c3cnc(N4CCC(C)(C(=O)O)CC4)nc3)cc(-c3ncccc3OC)c2s1 [Compound 61] > 800 µg/mL

Requested read-out: solubility at 24 h. Entry: C=CCC1(C(=O)O)CCN(c2ncc(-c3cc(-c4cnccn4)c4sc(NC(=O)NCC)nc4c3)cn2)CC1 [Compound 139] > 800 µg/mL

Requested read-out: solubility at 24 h. Entry: CCNC(=O)Nc1nc2cc(-c3cnc(N(C)C4CCC(C)(C(=O)O)CC4)nc3)cc(-c3ccccn3)c2s1 (centres unmarked) [Compound 218] 12.5 to 400 µg/mL

###

Reported values of solubility at 24 h for individual entries
assay: physchem; conditions: pH 9, aqueous buffer, kinetic from dmso stock, Solubility Range (maximum solubility)

Examples from the recorded data:
1. CCNC(=O)Nc1nc2cc(-c3cnc(N4CCC(C)(C(=O)O)CC4)nc3)cc(C#Cc3ccncc3)c2s1 : > 800 µg/mL
2. CCNC(=O)Nc1nc2cc(-c3cnc(N4CCC(C)(C(=O)O)CC4)nc3)cc(-c3cnc(N(C)C)s3)c2s1 : 12.5 to 400 µg/mL
3. CCNC(=O)Nc1nc2cc(-c3cnc(N4CCC(C)(C(=O)O)CC4)c(F)c3)cc(-c3ccccn3)c2s1 : 400 to 800 µg/mL
4. CCNC(=O)Nc1nc2cc(-c3cnc(N4CCC(C)(C(=O)O)CC4)nc3)cc(-c3cncc(OC(C)(C)C)n3)c2s1 : > 800 µg/mL
5. CCNC(=O)Nc1nc2cc(-c3cnc(N4CCC(CC)(C(=O)O)CC4)cn3)cc(-c3nccc(C)n3)c2s1 : 12.5 to 400 µg/mL
6. CCCC1(C(=O)O)CCN(c2ncc(-c3cc(-c4ncnc5[nH]ccc45)c4sc(NC(=O)NCC)nc4c3)cn2)CC1 : > 800 µg/mL

Requested read-out: solubility at 24 h. Entry: CCNC(=O)Nc1nc2cc(-c3cnc(N4CCC(C)(C(=O)O)CC4)nc3)cc(-c3ccnc(OC)n3)c2s1 12.5 to 400 µg/mL

Requested read-out: solubility at 24 h. Entry: CCNC(=O)Nc1nc2cc(-c3cnc(N4CCC(C)(C(=O)O)CC4)nc3)cc(-c3cnc(CC)cn3)c2s1 > 800 µg/mL

Requested read-out: solubility at 24 h. Entry: CCNC(=O)Nc1nc2cc(-c3cnc(N4CCC(C)(C(=O)O)CC4)nc3)cc(-n3ccnc3)c2s1 > 800 µg/mL

###

experiment: physchem; details: pH 7.4, aqueous buffer, kinetic from dmso stock, Solubility Range
Reported values of solubility at 24 h for individual entries

1. CCNC(=O)Nc1nc2cc(-c3cnc(N4CCC(C)(C(=O)O)CC4)nc3)cc(-c3cnc(C)cn3)c2s1 : > 800 µg/mL
2. CCNC(=O)Nc1nc2cc(-c3cnc(N4CCC(C)(C(=O)O)CC4)nc3)nc(-c3ccccn3)c2s1 : 12.5 to 400 µg/mL
3. CCNC(=O)Nc1nc2cc(-c3cnc(N4CCC(C)(C(=O)O)CC4)nc3)cc(-c3ccc(OC)c(OC)n3)c2s1 : 400 to 800 µg/mL
4. CCNC(=O)Nc1nc2cc(-c3cnc(N4CCC(C)(C(=O)O)CC4)nc3)cc(-c3cc(C)ccn3)c2s1 : 400 to 800 µg/mL

Requested read-out: solubility at 24 h. Entry: CCNC(=O)Nc1nc2cc(-c3cnc(N4CCC(C)(C(=O)O)CC4)nc3)cc(-c3nccc(C)n3)c2s1 > 800 µg/mL

###

Reported values of solubility at 24 h for individual entries
test: physchem; settings: pH 9, aqueous buffer, kinetic from dmso stock, Max Solubility

Examples from the recorded data:
1) CCNC(=O)Nc1nc2cc(-c3cnc(N4CCC(CC)(C(=O)O)CC4)nc3)cc(-c3ccc(F)cc3)c2s1 : ≥ 800 µg/mL
2) CCNC(=O)Nc1nc2cc(-c3cnc(N4CCC(C)(C(=O)O)CC4)nc3)cc(Br)c2s1 : ≥ 800 µg/mL
3) CCNC(=O)Nc1nc2cc(-c3cnc(N4CCC(C)(C(=O)O)CC4)nc3)cc(/C(C)=N/OCCO)c2s1 : ≥ 800 µg/mL
4) CCNC(=O)Nc1nc2cc(-c3cnc(N4CCC(C)(C(=O)O)CC4)nc3)cc(C#Cc3ncccn3)c2s1 : 400 µg/mL
5) CCNC(=O)Nc1nc2cc(-c3cnc(N4CCC(C)(C(=O)O)CC4)nc3)cc(-c3cnc(OCC)s3)c2s1 : ≥ 800 µg/mL

Now consider a different molecule.
Requested read-out: solubility at 24 h. Entry: CCNC(=O)Nc1nc2cc(-c3cnc(N4CCC(C)(C(=O)O)CC4)nc3)c(OC)c(Br)c2s1 200 µg/mL

###

experiment: physchem; details: pH 9, aqueous buffer, kinetic from dmso stock, Solubility Range (maximum solubility)
MEASURE_NAME: solubility at 24 h

Examples from the recorded data:
1. CCNC(=O)Nc1nc2cc(-c3cnc(N4CCC(C)(C(=O)O)CC4)nc3)cc(-c3ccc(C#N)c(C)n3)c2s1 : 12.5 to 400 µg/mL
2. CCCC1(C(=O)O)CCN(c2ncc(-c3cc(-c4nccc(OC)n4)c4sc(NC(=O)NCC)nc4c3)cn2)CC1 : 12.5 to 400 µg/mL
3. CCNC(=O)Nc1nc2cc(-c3cnc(N4CCC(C)(C(=O)O)CC4)nc3)cc(-c3ccc(CC#N)cn3)c2s1 : > 800 µg/mL
4. CCCC1(C(=O)O)CCN(c2ncc(-c3cc(-c4nccc(C)n4)c4sc(NC(=O)NCC)nc4c3)cn2)CC1 : > 800 µg/mL
5. CCNC(=O)Nc1nc2cc(-c3cnc(N4CCC(C)(C(=O)O)CC4)nc3)cc(-c3cc(OC(C)C)ncn3)c2s1 : > 800 µg/mL
6. CCNC(=O)Nc1nc2cc(-c3cnc(N4CCC(C)(C(=O)O)CC4)nc3)cc(-c3cncc(OC)n3)c2s1 : 400 to 800 µg/mL

Now consider a different molecule.
Requested read-out: solubility at 24 h. Entry: CCNC(=O)Nc1nc2cc(-c3cnc(N4CCC(C)(C(=O)O)CC4)nc3)cc(-c3noc(C)n3)c2s1 > 800 µg/mL

###

experiment: physchem; settings: pH 7.4, aqueous buffer, kinetic from dmso stock, Solubility Range
Reported values of solubility at 24 h for individual entries

Examples from the recorded data:
1. CCNC(=O)Nc1nc2cc(-c3cnc(N4CCC(C)(C(=O)O)CC4)nc3)cc(-c3cc(=O)n(C(C)C)cn3)c2s1 [Compound 57] : 12.5 to 400 µg/mL
2. CCNC(=O)Nc1nc2cc(-c3cnc(N4CCC(C)(C(=O)O)CC4)nc3)cc(-c3nccc4occc34)c2s1 [Compound 70] : > 800 µg/mL

Requested read-out: solubility at 24 h. Entry: CCCC1(C(=O)O)CCN(c2ncc(-c3cc(-c4nccc(C)n4)c4sc(NC(=O)NCC)nc4c3)cn2)CC1 [Compound 120] 400 to 800 µg/mL

###

assay: physchem; settings: pH 9, aqueous buffer, kinetic from dmso stock, Max Solubility
MEASURE_NAME: solubility at 24 h

1. CCNC(=O)Nc1nc2cc(-c3cnc(N4CCC(CC)(C(=O)O)CC4)nc3)cc(C(=O)CC)c2s1 : 400 µg/mL

Requested read-out: solubility at 24 h. Entry: CCNC(=O)Nc1nc2cc(-c3cnc(N4CCC(C)(C(=O)O)CC4)nc3)cc(-c3cc(C)c(F)cn3)c2s1 ≥ 800 µg/mL

Requested read-out: solubility at 24 h. Entry: CCNC(=O)Nc1nc2cc(-c3cnc(N4CCC(C)(C(=O)O)CC4)nc3)cc(-c3cnc(CC)s3)c2s1 400 µg/mL

Requested read-out: solubility at 24 h. Entry: CCNC(=O)Nc1nc2cc(-c3cnc(N4CCC(C)(C(=O)O)CC4)nc3)cc(C#Cc3ccncn3)c2s1 ≥ 800 µg/mL
